# System under test: human 5-HT6 receptor (Homo sapiens, UniProt P50406)
# Construct: expressed in transfected cells
# Sequence (P50406 whole entry): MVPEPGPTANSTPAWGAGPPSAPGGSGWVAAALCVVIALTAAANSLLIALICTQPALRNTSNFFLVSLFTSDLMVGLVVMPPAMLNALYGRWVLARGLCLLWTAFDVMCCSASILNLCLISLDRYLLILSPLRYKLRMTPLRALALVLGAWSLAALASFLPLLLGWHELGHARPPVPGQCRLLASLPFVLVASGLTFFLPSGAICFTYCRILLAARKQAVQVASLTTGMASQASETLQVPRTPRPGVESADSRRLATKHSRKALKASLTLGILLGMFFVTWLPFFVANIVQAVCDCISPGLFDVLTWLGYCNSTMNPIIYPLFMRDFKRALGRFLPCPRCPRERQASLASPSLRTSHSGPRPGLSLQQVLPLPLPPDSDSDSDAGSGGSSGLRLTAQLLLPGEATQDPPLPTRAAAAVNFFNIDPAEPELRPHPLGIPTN
# Experimental details: GPCR radioligand binding assay, [3H]-LSD displacement, HEK293 membranes
# Conditions used: 5-HT6; replicate exp_2
Please note: MET applies when %inh 5-HT6 exp_2 is 30% or greater, and NOT MET applies otherwise.

Look over these answered cases.
{"Compound": "Nc1ccc(SC(F)F)cc1 [D1]", "System under test": "human 5-HT6 receptor (Homo sapiens, UniProt P50406)", "Category label": "MET"}
{"Compound": "Cc1cc(C)c2c(=O)[nH]n(C)c2n1", "System under test": "human 5-HT6 receptor (Homo sapiens, UniProt P50406)", "Category label": "MET"}
{"Compound": "N#Cc1ccc2ncsc2c1", "System under test": "human 5-HT6 receptor (Homo sapiens, UniProt P50406)", "Category label": "MET"}
{"Compound": "Cn1nc(C(F)(F)F)cc1O", "System under test": "human 5-HT6 receptor (Homo sapiens, UniProt P50406)", "Category label": "NOT MET"}
{"Compound": "NC(c1ccccc1)c1ccccc1", "System under test": "human 5-HT6 receptor (Homo sapiens, UniProt P50406)", "Category label": "MET"}
{"Compound": "O=C(NC1CC1)c1ccccc1O", "System under test": "human 5-HT6 receptor (Homo sapiens, UniProt P50406)", "Category label": "NOT MET"}

Check if %inh 5-HT6 exp_2 >= 30% (inclusive). Item: "O=C1NC2(CCCC2)Nc2ccccc21"
MET

Source: paper PMC8159961
